# System: LPESG (Abz-LPESGK(Dnp)-CONH2)
# ASSAY_NAME: In vitro sortase kinetics HPLC assay, LPESG substrate
# Assay type: biochemical
# TEST_CONTEXT: substrate 4S (LPESG); read-out: Km, LxExG
# Experimental: See below for details on sortase expression and purification, and on the synthesis of Abz-LPETGK(Dnp)-CONH2 (SEQ ID NO: 19). […] Reactions were initiated with the addition of enzyme and incubated at 22.5° C. for 3 to 20 minutes before quenching with 0.5 volumes of 1 M HCl. […] Percent conversion was also calculated by using the ratio of the integrated areas of the GK(Dnp)-CONH2 and Abz-LPETGK(Dnp)-CONH2 peptide Abs355 peaks were compared directly (Example 5). […]
EXPERIMENTAL_ENDPOINT: log10 Km (log10 of the value in µM)
Response schema: value (number) is log10 of Km in units of µM.

Which log10 Km value belongs to eSrtA(4S-4): 5mut + A104V A118T F122S I182V (protein) QAKPQIPKDKSKVAGYIEIPDADIKEPVYPGPATREQLNRGVSFVEENESLDDQNISITGHTSIDRPNYQFTNLKAAKKGSMVYFKVGNETRKYKMTSIRNVKPTAVEVLDEQKGKDKQLTLVTCDDYNEETGVWETRKIFVATEVK ? 3.15

Any idea what log10 Km was measured for 4S.6C: 5mut + N98D A104V A118T F122A K134R I182V E189F (protein) QAKPQIPKDKSKVAGYIEIPDADIKEPVYPGPATREQLDRGVSFVEENESLDDQNISITGHTAIDRPNYQFTNLRAAKKGSMVYFKVGNETRKYKMTSIRNVKPTAVEVLDEQKGKDKQLTLVTCDDYNFETGVWETRKIFVATEVK ? 2.19

May I ask what log10 Km has been recorded for eSrtA(4S-3.5) (protein) QAKPQIPKDKSKVAGYIEIPDADIKEPVYPGPATREQLNRGVSFTEENESLDDQNISITGHTFIDRPNYQFTNLKAAKKGSMVYFKVGNETRKYKMTSIRNVKPTAVEVLDEQKGKDKQLTLVTCDDYNEETGVWETRKIFVATEVK ? 3.86
